target: DLG1_2, Q12959; test: holdup assay; design: key: below the threshold = too weak to quantify, mostly under pKd 3.1 to 4; conditions: plain residues with an end cap or a label only (N-terminal biotin on a linker: ttds)
Sequence (Q12959 314-412): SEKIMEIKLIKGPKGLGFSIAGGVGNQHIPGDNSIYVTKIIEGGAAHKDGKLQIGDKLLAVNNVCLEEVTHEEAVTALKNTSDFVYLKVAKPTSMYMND
observation.type: pKd
Keep the answer to the number alone.

// known answers, use as guide
EVVHTPETSV [SLC16A3, O15427] = 4.3
PVRVCEETSL [OTULIN, Q96BN8] = 4.56

Identify measured pKd corresponding to FHPLGADSQV [SLC2A1, P11166]
3.88
